# Assayed system: UniProt:P34972
# Sequence (P34972 whole entry): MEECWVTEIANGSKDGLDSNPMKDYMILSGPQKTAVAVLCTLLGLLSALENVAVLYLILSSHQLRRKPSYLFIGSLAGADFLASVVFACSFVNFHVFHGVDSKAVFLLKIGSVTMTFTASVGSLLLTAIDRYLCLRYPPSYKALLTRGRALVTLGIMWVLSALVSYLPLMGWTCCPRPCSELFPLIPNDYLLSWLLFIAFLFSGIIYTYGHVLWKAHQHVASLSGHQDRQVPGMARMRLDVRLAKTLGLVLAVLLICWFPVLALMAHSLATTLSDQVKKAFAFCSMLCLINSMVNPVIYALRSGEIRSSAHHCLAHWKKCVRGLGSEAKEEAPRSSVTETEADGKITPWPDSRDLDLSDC
# Protocol description: cell-based
# Design: host or cells: cAMP Hunter cell lines
# Particulars: PathHunter agonist mode; read-out: CB2 Activity (β-Arrestin)
# Source text: The PathHunter® β-Arrestin assay monitors the activation of a GPCR in a homogenous, non-imaging assay format using a technology developed by DiscoverX called Enzyme Fragment Complementation (EFC) with β-galactosidase (3-Gal) as the functional reporter. […] PathHunter cell lines were expanded from freezer stocks according to standard procedures. […] Microplates were read following signal generation with a PerkinElmer Envision™ instrument for chemiluminescent signal detection. […]
Overview of reported log10 EC50 across a group of compounds:
Recall that a logarithmic scale is used here: each number is log10 of EC50 in nM.

Requested field: log10 EC50. Item: CCCCCCC(C)(C)c1cc(O)c2c(c1)OC(C)(C)c1ccc(C(=O)O)cc1-2 [Compound 31] 2.04

Also CCCCCCC(C)(C)c1cc(O)c2c(c1)OC(C)(C)[C@@H]1CC=C(C(=O)N[C@H]3C[C@H](O)C3)C[C@@H]21 [Compound 45] , if possible. 0.78

Also CCCCCCC(C)(C)c1cc(O)c2c(c1)OC(C)(C)[C@@H]1CC=C(C(=O)OC)C[C@@H]21 [Compound 28] , if possible. 0.23

Also CCCCCCC(C)(C)c1cc(O)c2c(c1)OC(C)(C)[C@@H]1CC=C(C(=O)NCC(O)CO)C[C@@H]21 (some centres unmarked) [Compound 24] , if possible. 0.30

Also CCCCCCC(C)(C)c1cc(O)c2c(c1)OC(C)(C)[C@@H]1CC=C(C(=O)NC3CCCCC3)C[C@@H]21 [Compound 16] , if possible. 0.70

Also CCCCCCC(C)(C)c1cc(O)c2c(c1)OC(C)(C)[C@@H]1CC=C(C(=O)N3CCCCC3)C[C@@H]21 [Compound 93] , if possible. 0.49

Provenance of the data: patent US20210284621A1
